# TESTED SYSTEM: P-gp (Homo sapiens)
# Sequence (P08183 whole entry): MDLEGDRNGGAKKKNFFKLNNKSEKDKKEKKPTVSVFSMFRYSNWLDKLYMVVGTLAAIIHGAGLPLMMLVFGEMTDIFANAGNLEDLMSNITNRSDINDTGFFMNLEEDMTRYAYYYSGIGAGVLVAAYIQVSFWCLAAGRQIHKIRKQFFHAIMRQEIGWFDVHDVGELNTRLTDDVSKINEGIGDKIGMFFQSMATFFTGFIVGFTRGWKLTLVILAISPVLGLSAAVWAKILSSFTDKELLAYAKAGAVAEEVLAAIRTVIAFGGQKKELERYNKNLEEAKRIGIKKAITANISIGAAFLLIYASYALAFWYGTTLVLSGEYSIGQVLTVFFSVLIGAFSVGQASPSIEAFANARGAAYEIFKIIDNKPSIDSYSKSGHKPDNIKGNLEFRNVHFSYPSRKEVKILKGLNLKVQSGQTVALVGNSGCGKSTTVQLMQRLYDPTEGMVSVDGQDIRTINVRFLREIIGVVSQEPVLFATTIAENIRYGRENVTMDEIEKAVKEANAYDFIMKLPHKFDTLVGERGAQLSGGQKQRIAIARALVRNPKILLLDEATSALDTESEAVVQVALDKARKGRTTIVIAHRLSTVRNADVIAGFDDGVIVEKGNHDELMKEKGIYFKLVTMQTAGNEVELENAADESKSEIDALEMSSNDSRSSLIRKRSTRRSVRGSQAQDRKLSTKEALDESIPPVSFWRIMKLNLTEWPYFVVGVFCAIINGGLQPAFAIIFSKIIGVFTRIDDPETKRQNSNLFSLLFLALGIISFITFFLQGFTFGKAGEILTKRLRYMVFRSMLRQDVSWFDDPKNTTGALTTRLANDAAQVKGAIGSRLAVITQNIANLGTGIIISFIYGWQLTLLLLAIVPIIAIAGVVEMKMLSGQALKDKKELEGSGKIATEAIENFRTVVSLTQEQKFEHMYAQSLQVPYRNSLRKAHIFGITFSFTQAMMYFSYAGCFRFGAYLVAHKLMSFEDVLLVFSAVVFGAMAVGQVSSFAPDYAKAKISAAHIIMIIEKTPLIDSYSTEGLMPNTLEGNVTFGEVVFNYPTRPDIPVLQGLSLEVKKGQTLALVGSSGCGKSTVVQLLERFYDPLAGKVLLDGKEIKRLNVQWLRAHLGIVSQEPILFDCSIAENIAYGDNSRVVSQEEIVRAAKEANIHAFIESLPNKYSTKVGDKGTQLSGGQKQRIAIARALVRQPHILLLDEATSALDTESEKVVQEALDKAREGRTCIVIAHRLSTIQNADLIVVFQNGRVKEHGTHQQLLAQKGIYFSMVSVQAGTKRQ
# EXPERIMENT: Bidirectional transport assay of AR extract (seven components quantified)
# Assay type: in vitro ADME
# CONDITION NOTES: dog; component given as AR extract (10 mg/mL in HBSS); MDCK-MDR1; n = 3
MEASUREMENT TYPE: Papp A→B at 2 h (×10⁻⁶ cm/s)

- COMPOUND: "C[C@H]1CC[C@@]2(OC1)O[C@H]1C[C@H]3[C@@H]4CC[C@@H]5C[C@@H](O[C@@H]6O[C@H](CO)[C@H](O)[C@H](O)[C@H]6O[C@@H]6O[C@H](CO)[C@@H](O)[C@H](O)[C@H]6O)CC[C@]5(C)[C@H]4CC[C@]3(C)[C@H]1[C@@H]2C [TAIII, timosaponin AIII]"
  RESULT UNIT: "×10⁻⁶ cm/s"
  Papp A→B at 2 h: 3.05
- COMPOUND: "C[C@@H](CC[C@@]1(O)O[C@H]2C[C@H]3[C@@H]4CC[C@@H]5C[C@@H](O[C@@H]6O[C@H](CO)[C@H](O)[C@H](O)[C@H]6O[C@@H]6O[C@H](CO)[C@@H](O)[C@H](O)[C@H]6O)CC[C@]5(C)[C@H]4CC[C@]3(C)[C@H]2[C@@H]1C)CO[C@@H]1O[C@H](CO)[C@@H](O)[C@H](O)[C@H]1O [TBII, timosaponin BII]"
  RESULT UNIT: "×10⁻⁶ cm/s"
  Papp A→B at 2 h: 1.81
- COMPOUND: "C[C@H]1CC[C@@]2(OC1)O[C@H]1C[C@H]3[C@@H]4CC[C@@H]5C[C@@H](O)CC[C@]5(C)[C@H]4CC[C@]3(C)[C@H]1[C@@H]2C [SSG, sarsasapogenin]"
  RESULT UNIT: "×10⁻⁶ cm/s"
  Papp A→B at 2 h: 0.0398

I: O=c1c2cc(O)c(O)cc2oc2cc(O)c([C@@H]3O[C@H](CO)[C@@H](O)[C@H](O)[C@H]3O)c(O)c12 [MGF, mangiferin]
II: O=c1c2cc(O)c(O)cc2oc2c([C@@H]3O[C@H](CO)[C@@H](O)[C@H](O)[C@H]3O)c(O)cc(O)c12 [IMGF, isomangiferin]
III: O=c1c2cc(O[C@@H]3O[C@H](CO)[C@@H](O)[C@H](O)[C@H]3O)c(O)cc2oc2cc(O)c([C@@H]3O[C@H](CO)[C@@H](O)[C@H](O)[C@H]3O)c(O)c12 [NMGF, neomangiferin]
IV: COc1ccc(-c2oc3c(CC=C(C)C)c(O)cc(O)c3c(=O)c2O[C@@H]2O[C@@H](C)[C@H](O)[C@@H](O)[C@H]2O)cc1 [BHI, baohuoside I]
List items by Papp A→B at 2 h in falling order. Could you list the labels in the order requested?
I, IV, III, II
(I: 0.586 ×10⁻⁶ cm/s, IV: 0.155 ×10⁻⁶ cm/s, III: 0.0976 ×10⁻⁶ cm/s, II: 0.0546 ×10⁻⁶ cm/s)
